test system: HT-29; assay: NCI tumour cell line growth inhibition, 48 h
Calls of active or inactive are those of the source. No stated cut-off is given here; in the data, active = GI50 up to about 1.1 µM and inactive = higher.
Below: a set of entries, each annotated with reported GI50.

Some solved entries appear below for comparison.
# compound, result
rows = [
    ("CCOC(=O)c1cn(-c2ccccc2)c(=S)n2c1nc1ccccc12", "30.5 µM (inactive)"),
    ("COC(=O)C12OCC34C(CC5C(C)C6=CC(=O)OC6=CC5(C)C3C(O)C1O)OC(=O)C(OC(C)=O)C24 (stereo not drawn)", "16.3 µM (inactive)"),
    ("N/C=N/S(=O)(=O)c1ccc(NC(=O)COC(=O)c2cccc3c(=O)c4ccccc4[nH]c23)cc1", "> 100 µM (inactive)"),
    ("CC(=O)O[C@H]1C[C@@H](OC(C)=O)[C@@](C)(O)[C@@H]2[C@@H](OC(C)=O)[C@@]3(O)[C@H](/C=C(/CCl)[C@H]4O[C@H]4[C@@H](OC(C)=O)[C@@]12C)OC(=O)[C@@H]3C", "> 25 µM (inactive)"),
    ("O=S(=O)(Sc1ccc(Cl)cc1)c1ccc(Cl)cc1", "18.2 µM (inactive)"),
]

Request: State the recorded GI50 for this entry: CC1=CP(=O)(c2c(C(C)C)cc(C(C)C)cc2C(C)C)CCC1Cl (stereo not drawn)
Response: 16.4 µM (inactive)

Request: State the recorded GI50 for this entry: CN(C)C(C1=C(O)C(c2ccccc2)N(c2ccccc2)C1=O)N1CCOCC1 (stereo not drawn)
Response: > 10 µM (inactive)

Request: State the recorded GI50 for this entry: COc1c2c(c3c(c1OC)c(=O)c1ccccc1n3C)OCO2
Response: > 100 µM (inactive)

---

test system: SK-MEL-5; experiment: NCI tumour cell line growth inhibition, 48 h
Activity calls are given as the source filed them. Cut-off read from the data, not from the text of the source: active = GI50 up to about 1.1 µM and inactive = higher. Non-standard residues stand in square brackets, D forms with d. Residues, ends and D or L forms follow the SMILES beside them. *: point of attachment. Benzoyl(4-OMe) = COc1ccc(C(=O)*)cc1; 2Thi = N[CH](Cc1cccs1)C(=O)O
readout-name: GI50

Some solved entries appear below for comparison.
# compound, readout-name, result
records = [
    ("CCCCCCC1OC23OC1CCC2C(O)CCC3O (stereo not drawn)", "GI50", "> 100 µM (inactive)"),
    ("CCCc1cc(=O)oc2c3c(c4c(c12)OC(C)(C)C=C4)O[C@@H](C)[C@H](C)C3=O", "GI50", "15.8 µM (inactive)"),
    ("CN(C)c1ccc(C(c2ccc(N(C)C)cc2)c2ccc([N+](=O)[O-])cc2)cc1", "GI50", "> 100 µM (inactive)"),
    ("CC(C)N1[C@@H]2CCCC[C@H]2N(C(C)C)P1(=O)C(=O)/C=C/c1ccccc1", "GI50", "1.5 µM (inactive)"),
]

Request: State the recorded GI50 for this entry: N#Cc1c(-c2ccccc2)c(C#N)c(=S)n(C2OCC(O)C(O)C2O)c1N (stereo not drawn)
Response: > 100 µM (inactive)

Request: State the recorded GI50 for this entry: CC(C)(C)C1=C(Br)C(Br)(C(C)(C)C)OP1(=O)c1ccccc1 (stereo not drawn)
Response: > 100 µM (inactive)

Request: State the recorded GI50 for this entry: COC(=O)c1c2c(cc3c1CC1(Cc4cc5c(c(C(C)=O)c4C1)CCC5)C3)CCC2 (stereo not drawn)
Response: 31.8 µM (inactive)

Request: State the recorded GI50 for this entry: CCC(C)C(NC(=O)C(Cc1cccs1)NC(=O)C(CC(C)C)NC(=O)C(CC(C)C)NC(=O)C(CCCCN)NC(=O)C(CCCNC(=N)N)NC(=O)c1ccc(OC)cc1)C(=O)NC(CC(C)C)C(N)=O (stereo not drawn) ({Benzoyl(4-OMe)}-RKLL[2Thi]IL-NH2; configuration not given here)
Response: > 100 µM (inactive)
